Sequence of the target: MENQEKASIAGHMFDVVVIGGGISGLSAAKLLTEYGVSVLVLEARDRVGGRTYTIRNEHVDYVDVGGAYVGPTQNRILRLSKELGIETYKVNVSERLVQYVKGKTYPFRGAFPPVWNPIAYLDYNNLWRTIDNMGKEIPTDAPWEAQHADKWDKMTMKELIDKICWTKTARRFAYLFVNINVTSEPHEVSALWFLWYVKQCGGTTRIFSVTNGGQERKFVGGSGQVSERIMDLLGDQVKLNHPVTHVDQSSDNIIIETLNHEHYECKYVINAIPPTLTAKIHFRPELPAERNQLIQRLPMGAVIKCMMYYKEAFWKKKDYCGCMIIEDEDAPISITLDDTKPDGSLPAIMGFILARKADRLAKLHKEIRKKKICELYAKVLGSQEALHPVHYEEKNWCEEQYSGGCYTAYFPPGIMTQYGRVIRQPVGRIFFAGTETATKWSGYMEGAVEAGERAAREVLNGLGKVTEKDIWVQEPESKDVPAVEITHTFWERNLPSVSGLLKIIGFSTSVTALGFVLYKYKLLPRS
pIC50: −log10 of the molar value.
Label Met when pIC50 is at or above 6; otherwise label Not met.

# example entries with known answers
# substance-smiles, answer-label
rows = [
    ("COc1ccc2c(c1)C/C(=C\\c1cccnc1)C2=O", "Not met"),
    ("COc1ccc2c(c1)C/C(=C\\c1ccccn1)C2=O", "Met"),
]

Okay, next one:
Ask: Does "O=C1/C(=C/c2cccnc2Cl)Cc2ccccc21" have a reported pIC50 of at least 6?
Result: Met

* * *

Exercise: for every item that follows, state its recorded IC50.
target: UniProtKB P27338
Sequence (P27338 whole entry): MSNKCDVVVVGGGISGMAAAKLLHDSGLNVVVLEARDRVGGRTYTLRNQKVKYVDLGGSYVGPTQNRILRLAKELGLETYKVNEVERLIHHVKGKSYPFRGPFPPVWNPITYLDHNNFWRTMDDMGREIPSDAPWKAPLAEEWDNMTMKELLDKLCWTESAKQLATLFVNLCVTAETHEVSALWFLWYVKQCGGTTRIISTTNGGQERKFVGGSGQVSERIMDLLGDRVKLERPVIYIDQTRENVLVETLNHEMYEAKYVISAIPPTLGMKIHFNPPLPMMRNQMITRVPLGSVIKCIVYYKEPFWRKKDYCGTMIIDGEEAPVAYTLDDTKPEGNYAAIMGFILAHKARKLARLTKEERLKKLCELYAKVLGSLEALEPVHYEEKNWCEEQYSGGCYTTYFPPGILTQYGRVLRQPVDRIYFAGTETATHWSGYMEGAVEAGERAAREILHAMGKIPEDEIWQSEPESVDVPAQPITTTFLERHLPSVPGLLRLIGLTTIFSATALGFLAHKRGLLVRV
Numbers only, in nM.

# substance-smiles, study-target, unit-descriptor, IC50
records = [
    ("COc1ccc2c(c1)C/C(=C\\C1CCCCC1)C2=O", "UniProtKB P27338", "nM", 139),
    ("O=C1/C(=C/c2cccnc2)Cc2ccccc21", "UniProtKB P27338", "nM", 1270),
    ("COc1ccc2c(c1)C/C(=C\\c1ccc(Br)o1)C2=O", "UniProtKB P27338", "nM", 4.4),
    ("O=C1/C(=C/c2ccsc2)Cc2ccccc21", "UniProtKB P27338", "nM", 114),
    ("O=C1/C(=C/c2cccs2)Cc2ccccc21", "UniProtKB P27338", "nM", 418),
]

Now consider a different compound.
Ask: Given the compound "O=C1/C(=C/c2ccco2)Cc2ccccc21" , what is its reported IC50?
Result: 889
